Each entry below carries its recorded s (dipolarity/polarizability).
# Test protocol: Solvation interaction parameters by inverse gas-liquid chromatography (Abraham solvation model)
# Assay type: physicochemical
# Condition context: 40° C.

{"columns": ["Given smiles", "s (dipolarity/polarizability)"],
 "data": [
  ["Cn1cc[n+](CCCCCCCCC[n+]2ccn(C)c2)c1.O=S(=O)([N-]S(=O)(=O)C(F)(F)F)C(F)(F)F.O=S(=O)([N-]S(=O)(=O)C(F)(F)F)C(F)(F)F", 1.81],
  ["C[N+]1(CCCCCCCCC[N+]2(C)CCCC2)CCCC1.O=S(=O)([N-]S(=O)(=O)C(F)(F)F)C(F)(F)F.O=S(=O)([N-]S(=O)(=O)C(F)(F)F)C(F)(F)F", 1.71],
  ["CCCCCCCCC[n+]1ccn(C)c1.O=S(=O)([N-]S(=O)(=O)C(F)(F)F)C(F)(F)F", 1.62],
  ["O=S(=O)([N-]S(=O)(=O)C(F)(F)F)C(F)(F)F.O=S(=O)([N-]S(=O)(=O)C(F)(F)F)C(F)(F)F.c1ccc(Cn2cc[n+](CCCCCCCCCCCC[n+]3ccn(Cc4ccccc4)c3)c2)cc1", 1.65],
  ["C[n+]1ccn(CCCCn2cc[n+](C)c2)c1.O=S(=O)([N-]S(=O)(=O)C(F)(F)F)C(F)(F)F.O=S(=O)([N-]S(=O)(=O)C(F)(F)F)C(F)(F)F", 2.01]
]}

---

Listing of recorded a (hydrogen bond basicity) by entry.
# Test protocol: Solvation interaction parameters by inverse gas-liquid chromatography (Abraham solvation model)
# Assay type: physicochemical
# Condition context: 40° C.
Property label: a (hydrogen bond basicity)

{"columns": ["Compound", "Recorded result"],
 "data": [
  ["CCCCCCCCC[n+]1ccn(C)c1.O=S(=O)([N-]S(=O)(=O)C(F)(F)F)C(F)(F)F [nmim-NTf2]", 1.91],
  ["C[N+]1(CCCCCCCCC[N+]2(C)CCCC2)CCCC1.O=S(=O)([N-]S(=O)(=O)C(F)(F)F)C(F)(F)F.O=S(=O)([N-]S(=O)(=O)C(F)(F)F)C(F)(F)F [C9(mpy)2-NTf2]", 1.98],
  ["Cn1cc[n+](CCCCCCCCC[n+]2ccn(C)c2)c1.O=S(=O)([N-]S(=O)(=O)C(F)(F)F)C(F)(F)F.O=S(=O)([N-]S(=O)(=O)C(F)(F)F)C(F)(F)F [C9(mim)2-NTf2]", 1.83],
  ["C[n+]1ccn(CCCCn2cc[n+](C)c2)c1.O=S(=O)([N-]S(=O)(=O)C(F)(F)F)C(F)(F)F.O=S(=O)([N-]S(=O)(=O)C(F)(F)F)C(F)(F)F [C4(mim)2-NTf2]", 2.11],
  ["O=S(=O)([N-]S(=O)(=O)C(F)(F)F)C(F)(F)F.O=S(=O)([N-]S(=O)(=O)C(F)(F)F)C(F)(F)F.c1ccc(Cn2cc[n+](CCCCCCCCCCCC[n+]3ccn(Cc4ccccc4)c3)c2)cc1 [C12(benzim)2-NTf2]", 1.96]
]}

---

# Test protocol: Solvation interaction parameters by inverse gas-liquid chromatography (Abraham solvation model)
# Assay type: physicochemical
# Condition context: 70° C.

{"columns": ["Given smiles", "a (hydrogen bond basicity)"],
 "data": [
  ["CCCCCCCCC[n+]1ccn(C)c1.O=S(=O)([N-]S(=O)(=O)C(F)(F)F)C(F)(F)F", 1.57],
  ["C[n+]1ccn(CCCCn2cc[n+](C)c2)c1.O=S(=O)([N-]S(=O)(=O)C(F)(F)F)C(F)(F)F.O=S(=O)([N-]S(=O)(=O)C(F)(F)F)C(F)(F)F", 1.77],
  ["Cn1cc[n+](CCCCCCCCC[n+]2ccn(C)c2)c1.O=S(=O)([N-]S(=O)(=O)C(F)(F)F)C(F)(F)F.O=S(=O)([N-]S(=O)(=O)C(F)(F)F)C(F)(F)F", 1.75],
  ["C[N+]1(CCCCCCCCC[N+]2(C)CCCC2)CCCC1.O=S(=O)([N-]S(=O)(=O)C(F)(F)F)C(F)(F)F.O=S(=O)([N-]S(=O)(=O)C(F)(F)F)C(F)(F)F", 1.65],
  ["O=S(=O)([N-]S(=O)(=O)C(F)(F)F)C(F)(F)F.O=S(=O)([N-]S(=O)(=O)C(F)(F)F)C(F)(F)F.c1ccc(Cn2cc[n+](CCCCCCCCCCCC[n+]3ccn(Cc4ccccc4)c3)c2)cc1", 1.75]
]}

---

# Test protocol: Refractive index (Abbe-3L refractometer)
# Type: physicochemical
# Condition context: 23° C.
Property label: Refractive Index

{"columns": ["Given smiles", "Recorded result"],
 "data": [
  ["Cn1cc[n+](CCCCCC[n+]2ccn(C)c2)c1.O=S(=O)([N-]S(=O)(=O)C(F)(F)F)C(F)(F)F.O=S(=O)([N-]S(=O)(=O)C(F)(F)F)C(F)(F)F", 1.441],
  ["C=Cn1cc[n+](CCCCCCCCCCC[n+]2ccn(C=C)c2)c1.O=S(=O)([N-]S(=O)(=O)C(F)(F)F)C(F)(F)F.O=S(=O)([N-]S(=O)(=O)C(F)(F)F)C(F)(F)F", 1.457],
  ["Cn1cc[n+](CCCCCCCCC[n+]2ccn(C)c2)c1.O=S(=O)([N-]S(=O)(=O)C(F)(F)F)C(F)(F)F.O=S(=O)([N-]S(=O)(=O)C(F)(F)F)C(F)(F)F", 1.442],
  ["C=Cn1cc[n+](CCCCCCCCCCCC[n+]2ccn(C=C)c2)c1.O=S(=O)([N-]S(=O)(=O)C(F)(F)F)C(F)(F)F.O=S(=O)([N-]S(=O)(=O)C(F)(F)F)C(F)(F)F", 1.458]
]}

---

Below, each entry is listed with its recorded a (hydrogen bond basicity).
# Test protocol: Solvation interaction parameters by inverse gas-liquid chromatography (Abraham solvation model)
# Assay type: physicochemical
# Condition context: 100° C.
Property label: a (hydrogen bond basicity)

{"columns": ["Given smiles", "Recorded result"],
 "data": [
  ["C[n+]1ccn(CCCCn2cc[n+](C)c2)c1.O=S(=O)([N-]S(=O)(=O)C(F)(F)F)C(F)(F)F.O=S(=O)([N-]S(=O)(=O)C(F)(F)F)C(F)(F)F", 1.57],
  ["CCCCCCCCC[n+]1ccn(C)c1.O=S(=O)([N-]S(=O)(=O)C(F)(F)F)C(F)(F)F", 1.43],
  ["C[N+]1(CCCCCCCCC[N+]2(C)CCCC2)CCCC1.O=S(=O)([N-]S(=O)(=O)C(F)(F)F)C(F)(F)F.O=S(=O)([N-]S(=O)(=O)C(F)(F)F)C(F)(F)F", 1.48],
  ["O=S(=O)([N-]S(=O)(=O)C(F)(F)F)C(F)(F)F.O=S(=O)([N-]S(=O)(=O)C(F)(F)F)C(F)(F)F.c1ccc(Cn2cc[n+](CCCCCCCCCCCC[n+]3ccn(Cc4ccccc4)c3)c2)cc1", 1.44],
  ["Cn1cc[n+](CCCCCCCCC[n+]2ccn(C)c2)c1.O=S(=O)([N-]S(=O)(=O)C(F)(F)F)C(F)(F)F.O=S(=O)([N-]S(=O)(=O)C(F)(F)F)C(F)(F)F", 1.50]
]}

---

Readings of Density for the listed molecules
# Test protocol: Density (2.0 mL volumetric tube, weighing by difference)
# Type: physicochemical
# Condition context: 23° C.

{"columns": ["Given smiles", "Density (g/mL)"],
 "data": [
  ["Cn1cc[n+](CCCCCCCCC[n+]2ccn(C)c2)c1.F[B-](F)(F)F.F[B-](F)(F)F", 1.33],
  ["Cn1cc[n+](CCCCCCCCCCCC[n+]2ccn(C)c2)c1.O=S(=O)([N-]S(=O)(=O)C(F)(F)F)C(F)(F)F.O=S(=O)([N-]S(=O)(=O)C(F)(F)F)C(F)(F)F", 1.40],
  ["CCCCn1cc[n+](CCCCCCCCC[n+]2ccn(CCCC)c2)c1.F[B-](F)(F)F.F[B-](F)(F)F", 1.20],
  ["CCCCn1cc[n+](CCCCCCCCC[n+]2ccn(CCCC)c2)c1.O=S(=O)([N-]S(=O)(=O)C(F)(F)F)C(F)(F)F.O=S(=O)([N-]S(=O)(=O)C(F)(F)F)C(F)(F)F", 1.35],
  ["Cc1n(C)cc[n+]1CCCCCCCCC[n+]1ccn(C)c1C.F[B-](F)(F)F.F[B-](F)(F)F", 1.31],
  ["C=Cn1cc[n+](CCCCCCCCCCCC[n+]2ccn(C=C)c2)c1.O=S(=O)([N-]S(=O)(=O)C(F)(F)F)C(F)(F)F.O=S(=O)([N-]S(=O)(=O)C(F)(F)F)C(F)(F)F", 1.42],
  ["CCCCCCCCC[n+]1ccn(C)c1.O=S(=O)([N-]S(=O)(=O)C(F)(F)F)C(F)(F)F", 1.30],
  ["O=S(=O)([N-]S(=O)(=O)C(F)(F)F)C(F)(F)F.O=S(=O)([N-]S(=O)(=O)C(F)(F)F)C(F)(F)F.c1ccc(Cn2cc[n+](CCCCCCCCCCCC[n+]3ccn(Cc4ccccc4)c3)c2)cc1", 1.37],
  ["Cn1cc[n+](CCCCCCCCC[n+]2ccn(C)c2)c1.O=S(=O)([N-]S(=O)(=O)C(F)(F)F)C(F)(F)F.O=S(=O)([N-]S(=O)(=O)C(F)(F)F)C(F)(F)F", 1.47],
  ["CCCCn1cc[n+](CCCCCCCCC[n+]2ccn(CCCC)c2)c1.F[P-](F)(F)(F)(F)F.F[P-](F)(F)(F)(F)F", 1.30],
  ["Cn1cc[n+](CCCCCCCCCCCC[n+]2ccn(C)c2)c1.F[B-](F)(F)F.F[B-](F)(F)F", 1.26],
  ["Cn1cc[n+](CCCCCCCCCCCC[n+]2ccn(C)c2)c1.F[P-](F)(F)(F)(F)F.F[P-](F)(F)(F)(F)F", 1.36],
  ["Cn1cc[n+](CCC[n+]2ccn(C)c2)c1.O=S(=O)([N-]S(=O)(=O)C(F)(F)F)C(F)(F)F.O=S(=O)([N-]S(=O)(=O)C(F)(F)F)C(F)(F)F", 1.61],
  ["C[N+]1(CCCCCCCCC[N+]2(C)CCCC2)CCCC1.O=S(=O)([N-]S(=O)(=O)C(F)(F)F)C(F)(F)F.O=S(=O)([N-]S(=O)(=O)C(F)(F)F)C(F)(F)F", 1.41]
]}

Measured values drawn from patent US8956445B2 for this set.
